system: Streptococcus pyogenes; assay: Antibacterial activity against macrolide-resistant Streptococcus pyogenes harboring erm(A) gene after overnight incubation by agar dilution method; format: functional
observable: MIC90

Exam item: Item CC[C@H]1OC(=O)[C@H](C)[C@@H](O[C@H]2C[C@@](C)(OC)[C@@H](O)[C@H](C)O2)[C@H](C)[C@@H](O[C@@H]2O[C@H](C)C[C@H](N(C)C)[C@H]2O)[C@](C)(O)C[C@@H](C)CN(C)[C@H](C)[C@@H](O)[C@]1(C)O with Streptococcus pyogenes - MIC90?
Marked response: > 64 µg/mL

Exam item: Item CC[C@H]1OC(=O)[C@H](C)[C@@H](O[C@H]2C[C@@](C)(OC)[C@@H](O)[C@H](C)O2)[C@H](C)[C@@H](O[C@@H]2O[C@H](C)C[C@H](N(C)C)[C@H]2O)[C@](C)(OC)C[C@@H](C)C(=O)[C@H](C)[C@@H](O)[C@]1(C)O with Streptococcus pyogenes - MIC90?
Marked response: > 64 µg/mL

Exam item: Item CC[C@H]1OC(=O)[C@H](C)[C@@H](O[C@H]2C[C@@](C)(OC)[C@@H](O)[C@H](C)O2)[C@H](C)[C@@H](O[C@@H]2O[C@H](C)C[C@H](N(C)C)[C@H]2O)[C@](C)(O)C[C@@H](C)C(=O)[C@H](C)[C@@H](O)[C@]1(C)O with Streptococcus pyogenes - MIC90?
Marked response: > 64 µg/mL

Recorded values, source ChEMBL document CHEMBL1240350.
